# Assay details: log D7.4 determination, shake-flask n-octanol/PBS
# Format: physicochemical
# Reported conditions: ^64Cu-labeled, n-octanol/PBS pH 7.4, mean ± SD, n=3
Endpoint label: logD
Give the value as a plain number.

Incoming: What measured logD goes with Cc1c(COc2cc(OCc3cncc(S(C)(=O)=O)c3)c(CN(C)CC(=O)NCC(S(=O)(=O)O)S(=O)(=O)O)cc2Cl)cccc1-c1cccc(OCc2cn(CCOCCOCCN3CCN(C(=O)CN4CCN(CC(=O)O)CCN(CC(=O)O)CCN(CC(=O)O)CC4)CC3)nn2)c1C [43c] ?
Outgoing: -3.5

Incoming: Same again, this time with CN(CC(=O)NCC(S(=O)(=O)O)S(=O)(=O)O)Cc1cc(Cl)c(OCc2cccc(-c3cccc(OCc4cn(CCCC5CCN(C(=O)CN6CCN(CC(=O)O)CCN(CC(=O)O)CCN(CC(=O)O)CC6)CC5)nn4)c3)c2Br)cc1OCc1cncc(S(C)(=O)=O)c1 [42a]
Outgoing: -2.73
